# Test system: colorectal tissue transcripts
# experimentNotes: SAGE of normal, adenoma and cancer colorectal tissue (transcript tag counts)
# Set-up: species or system human
# details: SAGE library NC2

{"residueCodes": "CTTCCAGCTA (chemistry not fully specified)", "NC2 (SAGE tag count)": 31}
{"residueCodes": "AGGATGGTCC (chemistry not fully specified; the letters are possibly those of the target site)", "NC2 (SAGE tag count)": 19}
{"residueCodes": "ATGATGGCAC (chemistry not fully specified; the letters are possibly those of the target site)", "NC2 (SAGE tag count)": 32}
{"residueCodes": "GCTGGCACAT (chemistry not fully specified)", "NC2 (SAGE tag count)": 14}
{"residueCodes": "CCACTGCACC (chemistry not fully specified)", "NC2 (SAGE tag count)": 19}
{"residueCodes": "CCTGCCCCCC (chemistry not fully specified)", "NC2 (SAGE tag count)": 30}
{"residueCodes": "ATACTCCACT (chemistry not fully specified)", "NC2 (SAGE tag count)": 59}
{"residueCodes": "ACAATTGGTC (chemistry not fully specified)", "NC2 (SAGE tag count)": 10}
{"residueCodes": "GCACAGGTCA (chemistry not fully specified)", "NC2 (SAGE tag count)": 9}
{"residueCodes": "AATCACAAAT (chemistry not fully specified)", "NC2 (SAGE tag count)": 45}

---

Below, each entry is listed with its recorded AD2 (SAGE tag count).
# Tested on: colorectal tissue transcripts
# experimentNotes: SAGE of normal, adenoma and cancer colorectal tissue (transcript tag counts)
# Design: species or system human
# details: SAGE library AD2

{"residueCodes": "CCCAACGCGC (chemistry not fully specified)", "AD2 (SAGE tag count)": 5}
{"residueCodes": "AATAGTTTCC (chemistry not fully specified)", "AD2 (SAGE tag count)": 3}
{"residueCodes": "GATATGTAAA (chemistry not fully specified)", "AD2 (SAGE tag count)": 0}
{"residueCodes": "ACGGTCCAGG (chemistry not fully specified)", "AD2 (SAGE tag count)": 0}
{"residueCodes": "CAAATAAAAG (chemistry not fully specified)", "AD2 (SAGE tag count)": 0}
{"residueCodes": "CGGTGGGACC (target site or template, no part of the molecule; chemistry not given here)", "AD2 (SAGE tag count)": 1}
{"residueCodes": "CTGGATCTGG (chemistry not fully specified; the letters are possibly those of the target site)", "AD2 (SAGE tag count)": 9}
{"residueCodes": "GTCCTGAACA (chemistry not fully specified)", "AD2 (SAGE tag count)": 0}
{"residueCodes": "GGAGGCGCTC (chemistry not fully specified)", "AD2 (SAGE tag count)": 1}
{"residueCodes": "GCCAGGTTGC (chemistry not fully specified)", "AD2 (SAGE tag count)": 1}

---

# Test system: colorectal tissue transcripts
# experimentNotes: SAGE of normal, adenoma and cancer colorectal tissue (transcript tag counts)
# Design: species or system human
# details: SAGE library NC1
Strictly below 30 in NC1 (SAGE tag count): Yes. Otherwise: No.

{"residueCodes": "CGTGGGTGGG (chemistry not fully specified)", "label": "Yes"}
{"residueCodes": "GTGGTGGCAG (chemistry not fully specified; the letters are possibly those of the target site)", "label": "Yes"}
{"residueCodes": "GCGAAACTCG (chemistry not fully specified)", "label": "Yes"}
{"residueCodes": "AATGAGAAGG (chemistry not fully specified)", "label": "Yes"}
{"residueCodes": "AGCAGGAGCA (chemistry not fully specified)", "label": "No"}

---

# Test system: colorectal tissue transcripts
# experimentNotes: SAGE of normal, adenoma and cancer colorectal tissue (transcript tag counts)
# Design: species or system human
# details: cancer library 2
Below, each entry is listed with its recorded CA2 (SAGE tag count).

{"residueCodes": "TGCAGCACGA (chemistry not fully specified)", "CA2 (SAGE tag count)": 16}
{"residueCodes": "TCACAGTGCC (chemistry not fully specified)", "CA2 (SAGE tag count)": 4}
{"residueCodes": "TTTAACGGCC (chemistry not fully specified)", "CA2 (SAGE tag count)": 30}
{"residueCodes": "TAGGATGGGG (chemistry not fully specified)", "CA2 (SAGE tag count)": 1}
{"residueCodes": "TTTTTACTGA (chemistry not fully specified)", "CA2 (SAGE tag count)": 1}
{"residueCodes": "TCGGAGCTGT (chemistry not fully specified)", "CA2 (SAGE tag count)": 0}

---

Below, each entry is listed with its recorded CA2 (SAGE tag count).
# Test system: colorectal tissue transcripts
# experimentNotes: SAGE of normal, adenoma and cancer colorectal tissue (transcript tag counts)
# Parameters: species or system human
# details: cancer library 2
assayReadout: CA2 (SAGE tag count)

{"residueCodes": "TTCCGCGTTC (chemistry not fully specified)", "endpointResult": 2}
{"residueCodes": "GTGTTGGGGG (chemistry not fully specified)", "endpointResult": 3}
{"residueCodes": "TGGCGCGTGT (chemistry not fully specified)", "endpointResult": 5}
{"residueCodes": "TAAATTGCAA (chemistry not fully specified)", "endpointResult": 3}
{"residueCodes": "TGCTCCTACC (chemistry not fully specified; the letters are possibly those of the target site)", "endpointResult": 22}
{"residueCodes": "TAATTTGCAT (chemistry not fully specified)", "endpointResult": 0}
{"residueCodes": "TGCCGCCCGC (chemistry not fully specified)", "endpointResult": 0}
{"residueCodes": "TACTCGGCCA (chemistry not fully specified)", "endpointResult": 0}
{"residueCodes": "TCTGAATTAT (chemistry not fully specified)", "endpointResult": 0}
{"residueCodes": "TGATCTCTGT (chemistry not fully specified)", "endpointResult": 1}

---

# Tested on: colorectal tissue transcripts
# experimentNotes: SAGE of normal, adenoma and cancer colorectal tissue (transcript tag counts)
# Parameters: species or system human
# details: adenoma library 1
// label = Criterion met if AD1 (SAGE tag count) is not less than 5, otherwise Criterion not met

{"residueCodes": "TGGGGAGAGG (chemistry not fully specified)", "label": "Criterion met"}
{"residueCodes": "TTTAACGGCC (chemistry not fully specified)", "label": "Criterion met"}
{"residueCodes": "TGATCTCTGT (chemistry not fully specified)", "label": "Criterion not met"}
{"residueCodes": "TACGGTGTGG (chemistry not fully specified)", "label": "Criterion not met"}
{"residueCodes": "TGAGTGACAG (chemistry not fully specified)", "label": "Criterion not met"}
{"residueCodes": "TAGACTAGCA (chemistry not fully specified)", "label": "Criterion met"}
{"residueCodes": "TGCTCCTACC (chemistry not fully specified; the letters are possibly those of the target site)", "label": "Criterion met"}
{"residueCodes": "TAAATTGCAA (chemistry not fully specified)", "label": "Criterion met"}
{"residueCodes": "TTCTGGTGCG (chemistry not fully specified)", "label": "Criterion not met"}
{"residueCodes": "TCAGCTGCAA (chemistry not fully specified)", "label": "Criterion not met"}
{"residueCodes": "TTCCACTAAC (chemistry not fully specified)", "label": "Criterion met"}
{"residueCodes": "TTTGGTTTCA (chemistry not fully specified)", "label": "Criterion not met"}
{"residueCodes": "TCGGAGCTGT (chemistry not fully specified)", "label": "Criterion met"}
{"residueCodes": "TCACAGTGCC (chemistry not fully specified)", "label": "Criterion not met"}
{"residueCodes": "TTGGGGTTTC (chemistry not fully specified)", "label": "Criterion met"}
{"residueCodes": "TGGCCATCTG (chemistry not fully specified)", "label": "Criterion met"}
{"residueCodes": "TTTTTACTGA (chemistry not fully specified)", "label": "Criterion met"}
{"residueCodes": "TACTGTGGAT (chemistry not fully specified)", "label": "Criterion not met"}
{"residueCodes": "TAATTTGCAT (chemistry not fully specified)", "label": "Criterion not met"}
{"residueCodes": "TTGGACCTGG (chemistry not fully specified)", "label": "Criterion met"}
{"residueCodes": "TATGATGAGC (chemistry not fully specified)", "label": "Criterion not met"}
{"residueCodes": "TTCCGCGTTC (chemistry not fully specified)", "label": "Criterion not met"}
{"residueCodes": "TGACTAATTG (chemistry not fully specified)", "label": "Criterion not met"}
{"residueCodes": "TCACCGGTCA (chemistry not fully specified)", "label": "Criterion met"}
{"residueCodes": "TAAGGCCTTT (chemistry not fully specified; the letters are possibly those of the target site)", "label": "Criterion not met"}
{"residueCodes": "GTTTAGAGGG (chemistry not fully specified)", "label": "Criterion not met"}
{"residueCodes": "GTGGTTCACG (chemistry not fully specified)", "label": "Criterion not met"}
{"residueCodes": "TCAGAGCGCT (chemistry not fully specified)", "label": "Criterion not met"}
{"residueCodes": "TGGCTACTTA (chemistry not fully specified)", "label": "Criterion not met"}
{"residueCodes": "TAGGATGGGG (chemistry not fully specified)", "label": "Criterion not met"}
{"residueCodes": "TTTTCTGCAT (chemistry not fully specified)", "label": "Criterion not met"}
{"residueCodes": "TTATGGTGTG (chemistry not fully specified)", "label": "Criterion not met"}
{"residueCodes": "TGCCGCCCGC (chemistry not fully specified)", "label": "Criterion not met"}
{"residueCodes": "TACTCGGCCA (chemistry not fully specified)", "label": "Criterion not met"}
{"residueCodes": "GTGTTGGGGG (chemistry not fully specified)", "label": "Criterion met"}
{"residueCodes": "TTTCTCGTCG (chemistry not fully specified)", "label": "Criterion not met"}
{"residueCodes": "TCTGAATTAT (chemistry not fully specified)", "label": "Criterion not met"}
{"residueCodes": "TTCTGTAGCC (chemistry not fully specified)", "label": "Criterion not met"}
{"residueCodes": "TGCAGCGCCT (chemistry not fully specified; the letters are possibly those of the target site)", "label": "Criterion not met"}
{"residueCodes": "TTTCCTCTCA (chemistry not fully specified)", "label": "Criterion met"}
{"residueCodes": "TGGCGCGTGT (chemistry not fully specified)", "label": "Criterion not met"}
{"residueCodes": "TAATCCCAGC (chemistry not fully specified)", "label": "Criterion met"}
